Experimental system: Plasmepsin V (Plasmodium falciparum (isolate 3D7))
Assay notes: Inhibition of Plasmodium falciparum plasmepsin V assessed as cleavage of wtKAHRP fluorogenic substrate at 1 uM
Numbered stars: 1 amine (or outer) side, 2 acyl side, 3 side chain; on linkers, the order of the positions; unused ones are H or OH. Square brackets hold non-standard residues; d marks the D form. Peptide text beside a SMILES is read from it. * marks the point of attachment. Sta = CC(C)C[C@H](N)[C@@H](O)CC(=O)O; NHPhenethyl = c1ccc(CCN*)cc1; Isobutyryl = CC(C)C(=O)*; Cbz = O=C(OCc1ccccc1)*; PhAc = O=C(Cc1ccccc1)*; CO = O=C([*:1])[*:2]; NHBn = c1ccc(CN*)cc1

# Compound, inhibition
records = [
    ("CC(C)C[C@H](NC(=O)[C@H](C)NC(=O)[C@H](CCCNC(=N)N)NC(=O)Cc1ccccc1)[C@@H](O)CC(=O)NCCc1ccccc1 (PhAc-Arg-Ala-[Sta]-NHPhenethyl)", "59%"),
    ("CCNC(=O)N[C@@H](CCCNC(=N)N)C(=O)N[C@@H](C)C(=O)N[C@@H](CC(C)C)[C@@H](O)CC(=O)NCCc1ccccc1 ({NHEt-CO}-Arg-Ala-[Sta]-NHPhenethyl)", "26%"),
    ("CC(C)C[C@H](NC(=O)[C@H](C)NC(=O)[C@H](CCCNC(=N)N)NC(=O)OCc1ccccc1)[C@@H](O)CC(=O)NC1CCCc2ccccc21 (some centres not stated)", "51%"),
    ("CC(C)C[C@H](NC(=O)[C@H](C)NC(=O)[C@H](CCCNC(=N)N)NC(=O)OCc1ccccc1)[C@@H](O)CC(=O)NC1Cc2ccccc2C1", "66%"),
    ("CC(C)C[C@H](NC(=O)[C@H](C)NC(=O)[C@H](CCCNC(=N)N)NC(=O)COCc1ccccc1)[C@@H](O)CC(=O)NCCc1ccccc1", "81%"),
    ("CC(C)C[C@H](NC(=O)[C@H](C)NC(=O)[C@H](CCCNC(=N)N)NC(=O)OCc1ccccc1)[C@@H](O)CC(=O)NCc1ccccc1 (Cbz-Arg-Ala-[Sta]-NHBn)", "60%"),
    ("CC(C)C[C@H](NC(=O)[C@H](C)NC(=O)[C@H](CCCNC(=N)N)NC(=O)C(C)C)[C@@H](O)CC(=O)NCCc1ccccc1 (Isobutyryl-Arg-Ala-[Sta]-NHPhenethyl)", "49%"),
    ("CC(C)C[C@H](NC(=O)[C@H](C)NC(=O)[C@H](CCCNC(=N)N)NC(=O)OCc1ccccc1)[C@@H](O)CC(=O)NC1CC1", "55%"),
    ("CC(C)C[C@H](NC(=O)[C@H](C)NC(=O)[C@H](CCCNC(=N)N)NC(=O)OCc1ccccc1)[C@@H](O)CC(=O)NCC1CCCCC1", "63%"),
    ("CC(C)C[C@H](NC(=O)[C@H](C)NC(=O)[C@H](CCCNC(=N)N)NC(=O)OCc1ccccc1)[C@@H](O)CC(=O)NCCCc1ccccc1", "75%"),
    ("CC(C)C[C@H](NC(=O)[C@H](C)NC(=O)[C@H](CCCNC(=N)N)NC(=O)OCc1ccccc1)[C@@H](O)CC(=O)NC(C)c1ccccc1 (mixture of isomers)", "56%"),
    ("CC(C)C[C@H](NC(=O)[C@H](C)NC(=O)[C@H](CCCNC(=N)N)NC(=O)OCc1ccccc1)[C@@H](O)CC(=O)N1CCc2ccccc2C1", "45%"),
]
